tested on: HeLa Kyoto; experiment: solubility in G1/S (NP-40 vs SDS abundance) (log2 ratio); higher = more soluble; conditions: cell cycle stage: G1/S;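 further: HeLa Kyoto cells arrested at G1/S by double thymidine block, proteins quantified by TMT10plex mass spectrometry in mild NP-40 versus SDS extracts, three biological replicates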
Experimental Readout: solubility in G1/S (log2)
When you answer, write just the number.

The cases that follow already have their solubility in G1/S (log2) on record.
Polymer Sequence: MCGNNMSTPLPAIVPAARKATAAVIFLHGLGDTGHGWAEAFAGIRSSHIKYICPHAPVRPVTLNMNVAMPSWFDIIGLSPDSQEDESGIKQAAENIKALIDQEVKNGIPSNRIILGGFSQGGALSLYTALTTQQKLAGVTALSCWLPLRASFPQGPIGGANRDISILQCHGDCDPLVPLMFGSLTVEKLKTLVNPANVTFKTYEGMMHSSCQQEMMDVKQFIDKLLPPID [LYPLA1]
solubility in G1/S (log2): 0.619

Polymer Sequence: MAEGERQPPPDSSEEAPPATQNFIIPKKEIHTVPDMGKWKRSQAYADYIGFILTLNEGVKGKKLTFEYRVSEMWNEVHEEKEQAAKQSVSCDECIPLPRAGHCAPSEAIEKLVALLNTLDRWIDETPPVDQPSRFGNKAYRTWYAKLDEEAENLVATVVPTHLAAAVPEVAVYLKESVGNSTRIDYGTGHEAAFAAFLCCLCKIGVLRVDDQIAIVFKVFNRYLEVMRKLQKTYRMEPAGSQGVWGLDDFQFLPFIWGSSQLIDHPYLEPRHFVDEKAVNENHKDYMFLECILFITEMKTGPFAEHSNQLWNISAVPSWSKVNQGLIRMYKAECLEKFPVIQHFKFGSLLPIHPVTSG [PPP2R4]
solubility in G1/S (log2): 0.247

Polymer Sequence: MLQTLYDYFWWERLWLPVNLTWADLEDRDGRVYAKASDLYITLPLALLFLIVRYFFELYVATPLAALLNIKEKTRLRAPPNATLEHFYLTSGKQPKQVEVELLSRQSGLSGRQVERWFRRRRNQDRPSLLKKFREASWRFTFYLIAFIAGMAVIVDKPWFYDMKKVWEGYPIQSTIPSQYWYYMIELSFYWSLLFSIASDVKRKDFKEQIIHHVATIILISFSWFANYIRAGTLIMALHDSSDYLLESAKMFNYAGWKNTCNNIFIVFAIVFIITRLVILPFWILHCTLVYPLELYPAFFGYYFFNSMMGVLQLLHIFWAYLILRMAHKFITGKLVEDERSDREETESSEGEEAAAGGGAKSRPLANGHPILNNNHRKND [CERS2]
solubility in G1/S (log2): 0.0784

Exercise: Answer with the recorded solubility in G1/S (log2) of MLPPMALPSVSWMLLSCLMLLSQVQGEEPQRELPSARIRCPKGSKAYGSHCYALFLSPKSWTDADLACQKRPSGNLVSVLSGAEGSFVSSLVKSIGNSYSYVWIGLHDPTQGTEPNGEGWEWSSSDVMNYFAWERNPSTISSPGHCASLSRSTAFLRWKDYNCNVRLPYVCKFTD [PAP1] only.
Solution: 0.102

Exercise: Answer with the recorded solubility in G1/S (log2) of MGTPGEGLGRCSHALIRGVPESLASGEGAGAGLPALDLAKAQREHGVLGGKLRQRLGLQLLELPPEESLPLGPLLGDTAVIQGDTALITRPWSPARRPEVDGVRKALQDLGLRIVEIGDENATLDGTDVLFTGREFFVGLSKWTNHRGAEIVADTFRDFAVSTVPVSGPSHLRGLCGMGGPRTVVAGSSDAAQKAVRAMAVLTDHPYASLTLPDDAAADCLFLRPGLPGVPPFLLHRGGGDLPNSQEALQKLSDVTLVPVSCSELEKAGAGLSSLCLVLSTRPHS [DDAH2] only.
Solution: 0.479

Exercise: Answer with the recorded solubility in G1/S (log2) of MDTPPLSDSESESDESLVTDRELQDAFSRGLLKPGLNVVLEGPKKAVNDVNGLKQCLAEFKRDLEWVERLDVTLGPVPEIGGSEAPAPQNKDQKAVDPEDDFQREMSFYRQAQAAVLAVLPRLHQLKVPTKRPTDYFAEMAKSDLQMQKIRQKLQTKQAAMERSEKAKQLRALRKYGKKVQTEVLQKRQQEKAHMMNAIKKYQKGFSDKLDFLEGDQKPLAQRKKAGAKGQQMRKGPSAKRRYKNQKFGFGGKKKGSKWNTRESYDDVSSFRAKTAHGRGLKRPGKKGSNKRPGKRTREKMKNRTH [EBNA1BP2] only.
Solution: -1.71
